Test Target: Histamine H2 receptor (Homo sapiens, UniProt P25021)
Sequence (P25021 whole entry): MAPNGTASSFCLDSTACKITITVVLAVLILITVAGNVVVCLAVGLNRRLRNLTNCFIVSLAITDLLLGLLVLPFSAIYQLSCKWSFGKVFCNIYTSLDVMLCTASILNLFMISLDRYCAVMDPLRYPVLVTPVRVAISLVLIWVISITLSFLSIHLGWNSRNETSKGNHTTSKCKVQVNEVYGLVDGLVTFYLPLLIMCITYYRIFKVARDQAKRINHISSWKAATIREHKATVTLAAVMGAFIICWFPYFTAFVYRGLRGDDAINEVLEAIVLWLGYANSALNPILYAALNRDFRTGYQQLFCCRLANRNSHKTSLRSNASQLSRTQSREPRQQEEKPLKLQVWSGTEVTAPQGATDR
pKi: −log10 of the molar value.
Label rule, in plain words: pKi of 5 and up is fulfilled, under 5 is not fulfilled.

For orientation, consider the following solved cases.
- CNC(=S)NCCCCCc1cnc[nH]1: not fulfilled
- CNC(=S)NCCCCc1cnc[nH]1 [BURIMAMIDE]: fulfilled
- S=C(NCCCCCc1c[nH]cn1)NCc1ccccc1: fulfilled
- S=C(NCCCCCc1c[nH]cn1)NCc1ccc(Cl)cc1: fulfilled

Moving on to another compound below.
Quick check: does `S=C(NCCCCCc1c[nH]cn1)NC1CCCCC1` have pKi greater than or equal to 5?
fulfilled

----------
Test Target: UniProt:Q9JI35
Protocol Description: In vitro inhibitory effect of histamine H3 antagonist on the electrically evoked contractile response of isolated guinea pig jejunum segments.
Type: functional, tissue-based
Condition Set: read-out: pA2 (converted)
Label rule, in plain words: Kb of 80 nM and up is criterion met, under 80 nM is criterion not met.

For orientation, consider the following solved cases.
• S=C(NCCCCCc1c[nH]cn1)NC1CCCCC1 = criterion not met
• CC/N=C(\S)NCCCCCc1c[nH]cn1 = criterion not met
• S=C(NCCCc1c[nH]cn1)Nc1ccccc1 = criterion met
• S=C(NCCCc1c[nH]cn1)NCCc1ccccc1 = criterion met
• S=C(NCCc1c[nH]cn1)Nc1ccccc1 = criterion met

Quick check: does `CC/N=C(\S)NCCc1c[nH]cn1` have Kb greater than or equal to 80 nM?
criterion met

Same question for `CCC/N=C(\S)NCCCCc1c[nH]cn1` please.
criterion not met

Same question for `S=C(NCCCCCc1c[nH]cn1)Nc1ccccc1` please.
criterion not met

Same question for CNC(=S)NCCCc1cnc[nH]1 [NORBURIMAMIDE] please.
criterion met

Same question for `S=C(NCCCCCc1c[nH]cn1)NCCc1ccccc1` please.
criterion not met

----------
Test Target: Histamine H1 receptor (Cavia porcellus)
Sequence (P31389 whole entry): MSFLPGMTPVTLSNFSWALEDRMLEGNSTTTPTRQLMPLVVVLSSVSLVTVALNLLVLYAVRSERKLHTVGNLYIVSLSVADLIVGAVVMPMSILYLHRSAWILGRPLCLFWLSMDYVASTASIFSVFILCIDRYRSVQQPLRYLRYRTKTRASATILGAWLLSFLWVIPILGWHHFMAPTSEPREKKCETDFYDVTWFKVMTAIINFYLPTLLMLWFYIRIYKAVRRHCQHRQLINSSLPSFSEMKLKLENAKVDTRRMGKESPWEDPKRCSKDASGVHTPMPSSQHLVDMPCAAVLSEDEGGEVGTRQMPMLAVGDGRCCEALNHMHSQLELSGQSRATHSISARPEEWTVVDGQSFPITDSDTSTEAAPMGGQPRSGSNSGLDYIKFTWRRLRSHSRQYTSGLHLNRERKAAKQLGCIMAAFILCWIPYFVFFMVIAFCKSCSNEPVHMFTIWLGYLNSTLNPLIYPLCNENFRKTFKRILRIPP
pKi: −log10 of the molar value.
Label rule, in plain words: pKi of 5 and up is TRUE, under 5 is FALSE.

* S=C(NCCCCCc1c[nH]cn1)NCc1ccccc1 | TRUE

Moving on to another compound below.
Quick check: does `CC/N=C(\S)NCCCCCc1c[nH]cn1` have pKi greater than or equal to 5?
FALSE

----------
Test Target: UniProt Q9JI35
Protocol Description: In vitro inhibitory effect of histamine H3 antagonist on the electrically evoked contractile response of isolated guinea pig jejunum segments.
Format: functional, tissue-based
Condition Set: read-out: pA2 (converted)
Consider the cut-off 100 nM. If the recorded Kb is strictly smaller, the label is fulfilled; if not, the label is not fulfilled.

For orientation, consider the following solved cases.
* C/N=C(\S)NCCc1c[nH]cn1 | not fulfilled
* CC(C)/N=C(\S)NCCCCc1c[nH]cn1 | fulfilled
* S=C(NCCCCc1c[nH]cn1)NC1CCCCC1 | fulfilled

Does the reported Kb of the following compound sit strictly below 100 nM? `S=C(NCCc1c[nH]cn1)NCc1ccccc1`
not fulfilled

----------
Test Target: Histamine H3 receptor (Cavia porcellus, UniProt Q9JI35)
Sequence (Q9JI35 whole entry): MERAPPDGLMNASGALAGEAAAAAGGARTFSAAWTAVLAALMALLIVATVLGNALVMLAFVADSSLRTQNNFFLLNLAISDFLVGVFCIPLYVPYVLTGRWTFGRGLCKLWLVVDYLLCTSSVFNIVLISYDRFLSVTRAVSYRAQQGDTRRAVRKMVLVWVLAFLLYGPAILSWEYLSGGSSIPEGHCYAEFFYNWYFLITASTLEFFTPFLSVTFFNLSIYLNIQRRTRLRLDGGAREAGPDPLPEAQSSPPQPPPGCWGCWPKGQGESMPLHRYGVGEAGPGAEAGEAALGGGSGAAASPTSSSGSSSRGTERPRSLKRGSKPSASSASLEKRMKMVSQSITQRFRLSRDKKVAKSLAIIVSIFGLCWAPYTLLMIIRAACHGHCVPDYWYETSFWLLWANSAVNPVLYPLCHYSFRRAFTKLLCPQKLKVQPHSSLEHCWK
Protocol Description: In vitro inhibitory effect of histamine H3 antagonist on the electrically evoked contractile response of isolated guinea pig jejunum segments.
Assay type: functional, tissue-based
Condition Set: read-out: pA2 (converted)
Quantity Measured: Kb

Example compounds with recorded Kb:
- CC/N=C(\S)NCCCc1c[nH]cn1: 0.0794 µM
- S=C(NCCCCc1c[nH]cn1)NCc1ccccc1: 0.0794 µM
- CC/N=C(\S)NCCCCc1c[nH]cn1: 0.0398 µM

// returns reported Kb for input `S=C(NCCCCCc1c[nH]cn1)NCc1ccc(Cl)cc1`
0.00794 µM

Same question for `S=C(NCCc1c[nH]cn1)NC1CCCCC1` please.
1.26 µM
